The entries below are paired with their reported MIC, SA.
tested on: Staphylococcus aureus USA300; test: microbe, parasite or virus in culture; type: cell-based; conditions: USA300, 20 h
No end group written: not given here.
The reply should be a number in µM, with the unit left off.

SILPTIVSFLSKVF [temporin-1Ga]
3.1
FLSAITSILGKFF [temporin-1SPa]
6.3

Field: next sequence
Report MIC, SA for FLPIVGRLISGIL [temporin-CPb] please.
12.5
